molecular target: UniProtKB Q9WMX2; experiment: HCV NS5B-21 SPA enzyme assay; assay type: biochemical; details: triphosphate tested
Sequence (Q9WMX2 2420-3010): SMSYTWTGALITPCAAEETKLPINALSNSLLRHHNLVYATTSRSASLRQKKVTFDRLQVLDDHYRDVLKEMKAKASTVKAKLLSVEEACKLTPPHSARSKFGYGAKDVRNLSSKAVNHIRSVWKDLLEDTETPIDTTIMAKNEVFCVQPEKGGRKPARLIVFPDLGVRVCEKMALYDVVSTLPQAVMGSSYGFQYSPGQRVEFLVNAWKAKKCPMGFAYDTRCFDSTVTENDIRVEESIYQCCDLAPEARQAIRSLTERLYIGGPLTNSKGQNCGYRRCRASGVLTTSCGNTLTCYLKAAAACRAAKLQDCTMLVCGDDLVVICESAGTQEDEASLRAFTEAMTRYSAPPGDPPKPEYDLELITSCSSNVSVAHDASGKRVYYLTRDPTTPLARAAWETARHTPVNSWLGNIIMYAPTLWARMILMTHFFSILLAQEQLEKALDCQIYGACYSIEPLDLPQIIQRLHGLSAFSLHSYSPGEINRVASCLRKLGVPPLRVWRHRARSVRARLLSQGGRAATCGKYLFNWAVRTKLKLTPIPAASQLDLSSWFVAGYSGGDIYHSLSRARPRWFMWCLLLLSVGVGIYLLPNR
Recorded pKi by entry
Lab note: report pKi as minus log10 of the concentration in molar units, number only.

| test-smiles | reported-property | observed-measurement |
| --- | --- | --- |
| Nc1ccn([C@@H]2O[C@H](COP(=O)(O)OP(=O)(O)OP(=O)(O)O)[C@@H](O)C2(Cl)Cl)c(=O)n1 | pKi | 6.77 |

# evaluate next
State the recorded pKi for this entry: O=c1ccn([C@@H]2O[C@H](COP(=O)(O)OP(=O)(O)OP(=O)(O)O)[C@@H](O)C2(Cl)Cl)c(=O)[nH]1
5.80

----------
test system: HCV GT4a NS5B in con1 background; assay: HCV GT4a chimeric replicon; assay type: cell-based; details: Hepatitis C virus
reported-property: pEC50
pEC50 (log units): -log10 of the concentration in mol/L.

Reported pEC50 for CC(C)OC(=O)[C@H](C)OP(=O)(OC[C@H]1O[C@@H](n2ccc(=O)[nH]c2=O)[C@](C)(Cl)[C@@H]1O)Oc1ccccc1 (stereo partly shown) [Cpd. 40ii of WO2014/058801] : what is it?
6.83

----------
system: HCV type 1b replicon in Huh-7 luc/neo (Huh-Luc) cells; assay: HCV replicon assay (Huh-Luc, luciferase readout); type: cell-based; conditions: Hepatitis C virus, Huh-7, 72 h; HCV type 1b replicon, Huh-Luc cells, three days incubation, luciferase; read-out: EC50
Some compounds, each annotated with its measured EC50.
Express it in nM; write the number only.

Recorded EC50, per entry:
| compound | study-system | EC50, nM |
| --- | --- | --- |
| CC(C)OC(=O)[C@@H](C)NP(=O)(OC[C@H]1O[C@@H](n2ccc(=O)[nH]c2=O)C(Cl)(Cl)[C@@H]1O)Oc1ccccc1 (stereo partly drawn) | HCV type 1b replicon in Huh-7 luc/neo (Huh-Luc) cells | 5700 |
| CC[C@@H](C)OC(=O)[C@H](C)NP(=O)(OC[C@H]1O[C@@H](n2ccc(=O)[nH]c2=O)C(Cl)(Cl)[C@@H]1O)Oc1ccccc1 (stereo partly drawn) | HCV type 1b replicon in Huh-7 luc/neo (Huh-Luc) cells | 150 |

We next turn to a different compound, shown below.
So what's the measured EC50 for this one? CC(C)OC(=O)[C@H](C)NP(=O)(OC[C@H]1O[C@@H](n2ccc(=O)[nH]c2=O)C(Cl)(Cl)[C@@H]1O)Oc1cccc(C2(C)CC2)c1 (stereo partly drawn)
230

----------
test system: HCV GT4a S282T; assay: HCV GT4a S282T chimeric mutant replicon; assay type: cell-based; details: Hepatitis C virus, GT4A
reported-property: EC50 (nM)
A number alone suffices; assume nM.

Find the recorded EC50 belonging to CC(C)OC(=O)[C@H](C)OP(=O)(OC[C@H]1O[C@@H](n2ccc(=O)[nH]c2=O)[C@](C)(Cl)[C@@H]1O)Oc1ccccc1 (stereo partly shown) [Cpd. 40ii of WO2014/058801] and report it.
1720

----------
system: HCV type 1b replicon in Huh-7 luc/neo (Huh-Luc) cells; experiment: HCV replicon assay (Huh-Luc, luciferase readout); format: cell-based; conditions: Hepatitis C virus, Huh-7, 72 h; HCV type 1b replicon, Huh-Luc cells, three days incubation, luciferase; read-out: EC50
reported-property: pEC50
Kindly note that pEC50 refers to -log10 of the concentration in mol/L and answer with the value alone.

Need pEC50, item CC(C)OC(=O)[C@H](C)NP(=O)(OC[C@H]1O[C@@H](n2ccc(N)nc2=O)C(Cl)(Cl)[C@@H]1O)Oc1ccccc1 (stereo partly shown) [Example 12]
6.77

Entry under review: CC[C@H](C)OC(=O)[C@H](C)NP(=O)(OC[C@H]1O[C@@H](n2ccc(=O)[nH]c2=O)C(Cl)(Cl)[C@@H]1O)Oc1ccccc1 (stereo partly shown) [Example 6] . Reported pEC50?
7.00

Would you mind telling me what pEC50 value was observed for C[C@H](NP(=O)(OC[C@H]1O[C@@H](n2ccc(=O)[nH]c2=O)C(Cl)(Cl)[C@@H]1O)Oc1ccccc1)C(=O)OC1CCCCC1 (stereo partly shown) [Example 5] ?
6.80

Consider the molecule CC(C)OC(=O)[C@H](C)NP(=O)(OC[C@H]1O[C@@H](n2ccc(=O)[nH]c2=O)C(Cl)(Cl)[C@@H]1O)Oc1cccc(C2CCC2)c1 (stereo partly shown) [Example 7] and give its measured pEC50.
6.66

Which pEC50 value belongs to CC(C)OC(=O)[C@H](C)NP(=O)(OC[C@H]1O[C@@H](n2ccc(=O)[nH]c2=O)C(Cl)(Cl)[C@@H]1O)Oc1ccc(C2(C)CC2)cc1 (stereo partly shown) [Example 9] ?
6.44

What measured pEC50 goes with Nc1ccn([C@@H]2O[C@H](CO)[C@@H](O)C2(Cl)Cl)c(=O)n1 [Example 11] ?
4.89

----------
system: HCV GT3a S282T; test: HCV GT3a S282T chimeric mutant replicon; type: cell-based; settings: Hepatitis C virus, GT3A
reported-property: pEC50
# reply with the number alone; pEC50 is -log10 of concentration in mol/L

Dear colleague, I am looking for the recorded pEC50 of the following compound: CC(C)OC(=O)[C@H](C)OP(=O)(OC[C@H]1O[C@@H](n2ccc(=O)[nH]c2=O)[C@](C)(Cl)[C@@H]1O)Oc1ccccc1 (stereo partly shown) [Cpd. 40ii of WO2014/058801]
6.44

Each recorded value in this set is attributed to patent US20160271160A1.
